system: biosynthesis of hepatic cholesterol (hepatic epoxysqualene cyclase); assay: Influence on the biosynthesis of hepatic cholesterol in vivo: incorporation of radioactivity in the C27 sterols; details: 50 mg base/kg, oral (gavage), male OF1 mice; relative to control (vehicle) group; 14C-mevalonolactone at 1 h, sacrifice at 2 h
Measure: Percentage influence on the incorporation of radioactivity in the C27 sterols (%)
One number for each entry, in %.

Illustrative cases are given below, each with its answer.
- Compound: "C=CCN1CC=C2C(C)(C)[C@@H](NC(=O)C(F)(F)F)CC[C@]2(C)C1 (relative stereo)"
  U: "%"
  Measured Number: -37
- Compound: "C=CCN1CC=C2C(C)(C)[C@@H](N(C)C)CC[C@]2(C)C1 (relative stereo)"
  U: "%"
  Measured Number: -21
- Compound: "CC1(C)C2=CCN(CC3CO3)C[C@@]2(C)CC[C@@H]1NC(=O)C(F)(F)F (stereo partly shown)"
  U: "%"
  Measured Number: -32

We now examine a further compound.
Reported Percentage influence on the incorporation of radioactivity in the C27 sterols ( C=CCN1CC=C2C(C)(C)[C@@H](NC(C)=O)CC[C@]2(C)C1 (relative stereo) ) = -14
